relative GCLC transcription listing for selected molecules.
Assay: qHTS of Nrf2 Activators: Hit Validation in GCLC Induction Assay
Settings: Hepa1c1c7 cells, GCLC mRNA qPCR, 24 h; at 1 µM; stronger effect = higher value
Reply with just the number (in %).

Before answering, review these 4 worked examples.
[
  {
    "molecule": "CS(=O)(=O)c1nc(S(=O)(=O)c2ccc(Cl)cc2)c(N2CCOCC2)s1",
    "unit text": "%",
    "relative GCLC transcription": 148
  },
  {
    "molecule": "O=C(Nc1ncnc2sc3c(c12)CCC3)c1ccco1",
    "unit text": "%",
    "relative GCLC transcription": 122
  },
  {
    "molecule": "COc1ccc(NC(=O)c2cc(-c3cccs3)on2)c(OC)c1",
    "unit text": "%",
    "relative GCLC transcription": 157
  },
  {
    "molecule": "Cc1nc(NCc2ccco2)nc2c1C(=O)CC(C)C2 (stereo not given)",
    "unit text": "%",
    "relative GCLC transcription": 158
  }
]

I would be grateful if you could share the reported relative GCLC transcription for COc1ccc(NC(=O)c2cc(-c3ccco3)on2)c(OC)c1 . 155
